Target: UniProt:Q8MI13
Sequence (Q8MI13 whole entry): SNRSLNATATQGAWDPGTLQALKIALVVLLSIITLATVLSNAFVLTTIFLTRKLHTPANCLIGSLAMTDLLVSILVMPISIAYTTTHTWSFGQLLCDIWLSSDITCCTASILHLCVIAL
pKi: −log10 of the molar value.
Rule: pKi under 7 gives 0, otherwise 1.

Known results for compounds:
- Compound: "CC[C@@H](CO)NC(=O)[C@@H]1C=C2c3cccc4c3c(cn4C)C[C@H]2N(C)C1"
  Label class: 1
- Compound: "CCCN(CCC)C1CCc2cccc(O)c2C1 (stereo unspecified)"
  Label class: 0
- Compound: "NCCc1c[nH]c2ccc(O)cc12 [[3H]-5-HT]"
  Label class: 1
- Compound: "CN1C2CCC1CC(OC(=O)c1c[nH]c3ccccc13)C2 (stereo unspecified)"
  Label class: 0

Consider the additional compound presented here.
Is the recorded value of pKi equal to or greater than 7 for this compound? COc1cc(CC(C)N)c(OC)cc1Br (stereo unspecified)
0
